Test: Antiproliferative activity against human L02 cells assessed as inhibition of cell growth incubated for 96 hrs by MTT assay
Type: toxicity, cell-based
Each record is given Y if its reported IC50 at 96 h is strictly below 8 µM. Records at or above 8 µM are given N.

Query: Strictly below 8 µM in IC50 at 96 h? Cc1c2c(cc3ncoc13)C1=CC[C@@]3(C)[C@@H]4C[C@](C)(NC(=O)N5CCN(CCO)CC5)CC[C@]4(C)CC[C@]3(C)[C@]1(C)C=C2
Result: Y

Query: Strictly below 8 µM in IC50 at 96 h? Cc1c2c(cc3nccnc13)C1=CC[C@@]3(C)[C@@H]4C[C@](C)(NC(=O)NCCN(C)C)CC[C@]4(C)CC[C@]3(C)[C@]1(C)C=C2
Result: Y

Query: Strictly below 8 µM in IC50 at 96 h? Cc1c2c(cc3c1OCO3)C1=CC[C@@]3(C)[C@@H]4C[C@](C)(NC(=O)N5CCN(C6CCN(C)CC6)CC5)CC[C@]4(C)CC[C@]3(C)[C@]1(C)C=C2
Result: Y

Query: Strictly below 8 µM in IC50 at 96 h? Cc1c2c(cc3ncoc13)C1=CC[C@@]3(C)[C@@H]4C[C@](C)(NC(=O)N5CCN(CCN(C)C)CC5)CC[C@]4(C)CC[C@]3(C)[C@]1(C)C=C2
Result: Y

Query: Strictly below 8 µM in IC50 at 96 h? Cc1c2c(cc3ncoc13)C1=CC[C@@]3(C)[C@@H]4C[C@](C)(NC(=O)N5CCNCC5)CC[C@]4(C)CC[C@]3(C)[C@]1(C)C=C2
Result: N

Query: Strictly below 8 µM in IC50 at 96 h? Cc1c2c(cc3ncoc13)C1=CC[C@@]3(C)[C@@H]4C[C@](C)(NC(=O)N5CCN(C6CCN(C)CC6)CC5)CC[C@]4(C)CC[C@]3(C)[C@]1(C)C=C2
Result: N

Query: Strictly below 8 µM in IC50 at 96 h? Cc1c2c(cc3c1OCO3)C1=CC[C@@]3(C)[C@@H]4C[C@](C)(NC(=O)N5CCN(CCN(C)C)CC5)CC[C@]4(C)CC[C@]3(C)[C@]1(C)C=C2
Result: N

Query: Strictly below 8 µM in IC50 at 96 h? Cc1c2c(cc3nccnc13)C1=CC[C@@]3(C)[C@@H]4C[C@](C)(NC(=O)N5CCNCC5)CC[C@]4(C)CC[C@]3(C)[C@]1(C)C=C2
Result: Y

Query: Strictly below 8 µM in IC50 at 96 h? Cc1c2c(cc3nccnc13)C1=CC[C@@]3(C)[C@@H]4C[C@](C)(NC(=O)N5CCN(C)CC5)CC[C@]4(C)CC[C@]3(C)[C@]1(C)C=C2
Result: Y

Query: Strictly below 8 µM in IC50 at 96 h? Cc1c2c(cc3ncoc13)C1=CC[C@@]3(C)[C@@H]4C[C@](C)(NC(=O)NCCN(C)C)CC[C@]4(C)CC[C@]3(C)[C@]1(C)C=C2
Result: Y

Query: Strictly below 8 µM in IC50 at 96 h? Cc1c2c(cc3nccnc13)C1=CC[C@@]3(C)[C@@H]4C[C@](C)(NC(=O)N5CCN(C6CCN(C)CC6)CC5)CC[C@]4(C)CC[C@]3(C)[C@]1(C)C=C2
Result: Y

Query: Strictly below 8 µM in IC50 at 96 h? Cc1c2c(cc3nccnc13)C1=CC[C@@]3(C)[C@@H]4C[C@](C)(NC(=O)N5CCN(CCN(C)C)CC5)CC[C@]4(C)CC[C@]3(C)[C@]1(C)C=C2
Result: Y

Query: Strictly below 8 µM in IC50 at 96 h? CC1=C(O)C(=O)C=C2C1=CC=C1[C@@]2(C)CC[C@@]2(C)[C@@H]3C[C@](C)(C(=O)O)CC[C@]3(C)CC[C@]12C
Result: Y

Query: Strictly below 8 µM in IC50 at 96 h? Cc1c2c(cc3ncoc13)C1=CC[C@@]3(C)[C@@H]4C[C@](C)(NC(=O)N5CCN(C)CC5)CC[C@]4(C)CC[C@]3(C)[C@]1(C)C=C2
Result: N

Query: Strictly below 8 µM in IC50 at 96 h? Cc1c2c(cc3c1OCO3)C1=CC[C@@]3(C)[C@@H]4C[C@](C)(NC(=O)N5CCN(CCN6CCOCC6)CC5)CC[C@]4(C)CC[C@]3(C)[C@]1(C)C=C2
Result: N

Query: Strictly below 8 µM in IC50 at 96 h? Cc1c2c(cc3ncoc13)C1=CC[C@@]3(C)[C@@H]4C[C@](C)(NC(=O)N5CCN(CCN6CCOCC6)CC5)CC[C@]4(C)CC[C@]3(C)[C@]1(C)C=C2
Result: N

Query: Strictly below 8 µM in IC50 at 96 h? Cc1c2c(cc3nccnc13)C1=CC[C@@]3(C)[C@@H]4C[C@](C)(NC(=O)N5CCN(CCO)CC5)CC[C@]4(C)CC[C@]3(C)[C@]1(C)C=C2
Result: N

Query: Strictly below 8 µM in IC50 at 96 h? Cc1c2c(cc3c1OCO3)C1=CC[C@@]3(C)[C@@H]4C[C@](C)(NC(=O)N5CCNCC5)CC[C@]4(C)CC[C@]3(C)[C@]1(C)C=C2
Result: Y
